Tested on: T-84 (human colorectal adenocarcinoma line)
Protocol Conditions: T-84 cells, 72 hours induction, SRB; means±SEM of six independent determinations
Experimental Endpoint: IC50 (µM)
Field: numeric (µM). Do not append units.

Q: Name the recorded IC50 for CCCSS(=O)(=O)CCC [PTSO, propyl propane thiosulfonate] .
A: 37.3
